ASSAYED_SYSTEM: UniProtKB Q9F663
METHOD_NOTES: biochemical
EXPERIMENTAL_CONDITIONS: Table 3; read-out: K.p. KPC-2 IC50
ENDPOINT_LABEL: IC50 (µM)
Entry rule: numbers only, all in µM.

1) O=C(N[C@H]1CCNC[C@@H]1F)[C@@H]1CC[C@@H]2CN1C(=O)N2OS(=O)(=O)O [Example 24] = 0.09
2) O=C(Nc1ccc(CN2CCCC2)cc1)[C@@H]1CC[C@@H]2CN1C(=O)N2OS(=O)(=O)O [Example 63] = 0.085
3) O=C(NCC1CCCN1)[C@@H]1CC[C@@H]2CN1C(=O)N2OS(=O)(=O)O (stereo partly shown) [Example 38] = 0.12

Item O=C(N[C@@H]1CCCNC[C@@H]1F)[C@@H]1CC[C@@H]2CN1C(=O)N2OS(=O)(=O)O [Example 35] has what recorded IC50?
0.15

----------
Parameter IC50: see the listing below.
ASSAYED_SYSTEM: AmpC (P. aeruginosa) (Pseudomonas aeruginosa (strain ATCC 15692 / DSM 22644 / CIP 104116 / JCM 14847 / LMG 12228 / 1C / PRS 101 / PAO1), UniProt P24735)
Sequence (P24735 27-397): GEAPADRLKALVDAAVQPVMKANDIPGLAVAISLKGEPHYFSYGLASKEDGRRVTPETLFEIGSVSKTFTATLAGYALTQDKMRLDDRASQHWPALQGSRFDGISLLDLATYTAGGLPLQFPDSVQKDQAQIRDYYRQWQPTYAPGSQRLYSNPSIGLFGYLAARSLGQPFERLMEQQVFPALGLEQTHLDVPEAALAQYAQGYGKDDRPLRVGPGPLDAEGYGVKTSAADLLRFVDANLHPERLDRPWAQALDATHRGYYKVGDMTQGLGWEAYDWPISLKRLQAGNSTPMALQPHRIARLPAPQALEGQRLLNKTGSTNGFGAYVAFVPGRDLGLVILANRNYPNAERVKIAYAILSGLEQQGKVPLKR
METHOD_NOTES: biochemical
Entry rule: numbers only, all in nM.

1) O=C(O[C@H]1CNCC[C@H]1F)[C@@H]1CC[C@@H]2CN1C(=O)N2OS(=O)(=O)O = 76
2) O=C(N[C@H]1CCCNCC1)[C@@H]1CC[C@@H]2CN1C(=O)N2OS(=O)(=O)O = 69

Item O=C(O[C@H]1CNCC[C@@H]1F)[C@@H]1CC[C@@H]2CN1C(=O)N2OS(=O)(=O)O has what recorded IC50?
81

Then O=C(N[C@H]1CCNC[C@@H]1F)[C@@H]1CC[C@@H]2CN1C(=O)N2OS(=O)(=O)O ?
110

Then O=C(N[C@@H]1CNC[C@@H]1F)[C@@H]1CC[C@@H]2CN1C(=O)N2OS(=O)(=O)O ?
150

Then O=C(NC[C@@H]1CNCCCO1)[C@@H]1CC[C@@H]2CN1C(=O)N2OS(=O)(=O)O ?
100

----------
Parameter pIC50: see the listing below.
ASSAYED_SYSTEM: KPC-2 (K. pneumoniae) (Klebsiella pneumoniae, UniProt Q9F663)
Sequence (Q9F663 25-293 limits assumed): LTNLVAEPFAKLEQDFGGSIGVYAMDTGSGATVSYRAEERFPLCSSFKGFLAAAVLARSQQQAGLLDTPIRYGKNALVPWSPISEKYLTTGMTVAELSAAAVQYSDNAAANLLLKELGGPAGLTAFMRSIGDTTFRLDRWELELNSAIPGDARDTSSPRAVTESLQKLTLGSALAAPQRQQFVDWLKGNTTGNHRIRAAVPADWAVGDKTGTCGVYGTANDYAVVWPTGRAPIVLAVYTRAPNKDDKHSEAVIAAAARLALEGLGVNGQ
METHOD_NOTES: biochemical
EXPERIMENTAL_CONDITIONS: Table 3; read-out: K.p. KPC-2 IC50
Remember the convention: pIC50 equals -log10 of concentration in molar.

1. O=C(Nc1ccc(N2CCCC2)cn1)[C@@H]1CC[C@@H]2CN1C(=O)N2OS(=O)(=O)O = 8.00
2. O=C(O[C@@H]1CNC[C@@H]1F)[C@@H]1CC[C@@H]2CN1C(=O)N2OS(=O)(=O)O = 8.52

Continue with the next compound.
Item O=C(Nc1ccc2c(c1)CNC2)[C@@H]1CC[C@@H]2CN1C(=O)N2OS(=O)(=O)O has what recorded pIC50?
7.22

----------
ASSAYED_SYSTEM: AmpC (P. aeruginosa) (Pseudomonas aeruginosa (strain ATCC 15692 / DSM 22644 / CIP 104116 / JCM 14847 / LMG 12228 / 1C / PRS 101 / PAO1), UniProt P24735)
METHOD_NOTES: biochemical
EXPERIMENTAL_CONDITIONS: Table 3; read-out: P.a. AmpC IC50
Parameter IC50: see the listing below.
Entry rule: numbers only, all in nM.

Field: example entries. Status: answers known.
1) O=C(Nc1ccncn1)[C@@H]1CC[C@@H]2CN1C(=O)N2OS(=O)(=O)O = 0.8
2) O=C(NCC1(F)CNC1)[C@@H]1CC[C@@H]2CN1C(=O)N2OS(=O)(=O)O = 40
3) O=C(NCCN1CCCCC1)[C@@H]1CC[C@@H]2CN1C(=O)N2OS(=O)(=O)O = 180
4) O=C(OC1CNC1)[C@@H]1CC[C@@H]2CN1C(=O)N2OS(=O)(=O)O = 600
5) O=C(N[C@@H]1CCCNC[C@@H]1F)[C@@H]1CC[C@@H]2CN1C(=O)N2OS(=O)(=O)O = 13

Item NCCOC(=O)[C@@H]1CC[C@@H]2CN1C(=O)N2OS(=O)(=O)O has what recorded IC50?
610
